The values you see were collected from patent US20240277713A1.

Assay overview: Toxicokinetic evaluation in pregnant rabbits (Example 4)
Type: in vivo, rabbit
Test parameters: female, New Zealand White, rabbit, plasma, po, 125 mg/kg/day, GD 18, belumosudil 125 mg base/kg oral; read-out: Mean AUC0-24 in plasma of pregnant rabbits
Property label: AUC(0-t)
Write the figure, then the unit, nothing else.

(Q) Quick check: AUC(0-t) of "CC(C)NC(=O)COc1cccc(-c2nc(Nc3ccc4[nH]ncc4c3)c3ccccc3n2)c1" ?
(A) 9290 ng·h/mL

----------
Assay overview: Toxicokinetic evaluation in pregnant rats (Example 3)
Format: in vivo, rat
Test parameters: female, Sprague-Dawley, rat, plasma, po, 150 mg/kg/day, GD 17, belumosudil 150 mg base/kg oral
Property label: Cmax (ng/mL)
Answers are plain numbers, in ng/mL.

(Q) So what's the measured Cmax for this one? "CC(C)NC(=O)COc1cccc(-c2nc(Nc3ccc4[nH]ncc4c3)c3ccccc3n2)c1"
(A) 7800

----------
Assay overview: Toxicokinetic analysis in rat plasma (Example 5)
Format: in vivo
Test parameters: female, rat, plasma, po, 150 mg/kg/day
Property label: Cmax (ng/mL)
Give bare numbers, in ng/mL.

(Q) // query Cmax value for entry "CC(C)NC(=O)COc1cccc(-c2nc(Nc3ccc4[nH]ncc4c3)c3ccccc3n2)c1"
(A) 5670

----------
Assay overview: Pharmacokinetics in chronic GVHD patients
Assay type: in vivo, human
Test parameters: human, in vivo, oral; 200 mg once daily or twice daily; read-out: Median Tmax at steady state
Property label: Tmax

(Q) I'd like to know its Tmax. The compound in question is "CC(C)NC(=O)COc1cccc(-c2nc(Nc3ccc4[nH]ncc4c3)c3ccccc3n2)c1"
(A) 1.26 to 2.53 h

----------
Assay overview: Toxicokinetic evaluation in pregnant rats (Example 3)
Assay type: in vivo, rat
Test parameters: female, Sprague-Dawley, rat, plasma, po, 50 mg/kg/day, GD 6, belumosudil 50 mg base/kg oral
Property label: Cmax (ng/mL)
Give bare numbers, in ng/mL.

(Q) Consider the compound CC(C)NC(=O)COc1cccc(-c2nc(Nc3ccc4[nH]ncc4c3)c3ccccc3n2)c1 [belumosudil] and give its measured Cmax.
(A) 3000

----------
Assay overview: Toxicokinetic analysis in rat plasma (Example 5)
Type: in vivo
Test parameters: male, Sprague-Dawley, rat, plasma, po, 50 mg/kg/day
Property label: Cmax (ng/mL)
Answers are plain numbers, in ng/mL.

(Q) Endpoint output: Cmax of CC(C)NC(=O)COc1cccc(-c2nc(Nc3ccc4[nH]ncc4c3)c3ccccc3n2)c1 [belumosudil] . Value?
(A) 2480

----------
Assay overview: Toxicokinetic analysis in rat plasma (Example 5)
Type: in vivo
Test parameters: female, Sprague-Dawley, rat, plasma, po, 50 mg/kg/day
Property label: Cmax (µg/mL)
One number for each entry, in µg/mL.

(Q) Could you share which Cmax value was measured for "CC(C)NC(=O)COc1cccc(-c2nc(Nc3ccc4[nH]ncc4c3)c3ccccc3n2)c1" ?
(A) 3.2

----------
What AUC0-24 in rat plasma was measured for each of the following?
Assay overview: Toxicokinetic analysis in rat plasma (Example 5)
Type: in vivo
Test parameters: Day 70, belumosudil 275 mg base/kg, M
Answers are plain numbers, in µg·h/mL.

O=C(O)COc1cccc(-c2nc(Nc3ccc4[nH]ncc4c3)c3ccccc3n2)c1 [KD025m2]    28.9

As a next step, examine the molecule that follows.
(Q) What value of measured AUC0-24 in rat plasma is listed for CC(C)NC(=O)COc1cccc(-c2nc(Nc3ccc4[nH]ncc4c3)c3ccccc3n2)c1 [belumosudil] ?
(A) 191

----------
Assay overview: Toxicokinetic evaluation in pregnant rabbits (Example 4)
Format: in vivo, rabbit
Test parameters: female, New Zealand White, rabbit, plasma, po, 225 mg/kg/day, GD 18, belumosudil 225 mg base/kg oral
Property label: Cmax (ng/mL)
Answers are plain numbers, in ng/mL.

(Q) Look at this molecule and give its reported Cmax. CC(C)NC(=O)COc1cccc(-c2nc(Nc3ccc4[nH]ncc4c3)c3ccccc3n2)c1 [belumosudil]
(A) 2580

----------
Assay overview: Toxicokinetic analysis in rat plasma (Example 5)
Format: in vivo
Test parameters: Day 14, belumosudil 275 mg base/kg, F
Provide the recorded AUC0-24 in rat plasma for the entries that follow.
One number for each entry, in µg·h/mL.

O=C(O)COc1cccc(-c2nc(Nc3ccc4[nH]ncc4c3)c3ccccc3n2)c1 [KD025m2]    20.7

Field: next compound
(Q) Which value of AUC0-24 in rat plasma has been reported for CC(C)NC(=O)COc1cccc(-c2nc(Nc3ccc4[nH]ncc4c3)c3ccccc3n2)c1 [belumosudil] in the records?
(A) 209

----------
Assay overview: Toxicokinetic analysis in rat plasma (Example 5)
Assay type: in vivo
Test parameters: Day 70, belumosudil 150 mg base/kg, M
Property label: AUC0-24 in rat plasma
Reply with a number, then the unit it belongs to.

CC(C)NC(=O)COc1cccc(-c2nc(Nc3ccc4[nH]ncc4c3)c3ccccc3n2)c1    70100 ng·h/mL

Now examine the next entry.
(Q) Param item = "O=C(O)COc1cccc(-c2nc(Nc3ccc4[nH]ncc4c3)c3ccccc3n2)c1" ; retrieve measured AUC0-24 in rat plasma.
(A) 9520 ng·h/mL

----------
Assay overview: Toxicokinetic analysis in rat plasma (Example 5)
Type: in vivo
Test parameters: female, Sprague-Dawley, rat, plasma, po, 275 mg/kg/day; 275 mg base/kg/day, females; read-out: AUC0-24
Procedure: TK animals were dosed for 70 and 14 days for the males and females, respectively. Dosing of TK males and females was initiated simultaneously, continuing to euthanasia. Refrigerated daily aliquots of dosing formulations were brought to room temperature while continuously stirring for at least 30 minutes prior to dosing.
Property label: AUC(0-t) (µg·h/mL)
Answers are plain numbers, in µg·h/mL.

(Q) Please look up its AUC(0-t): CC(C)NC(=O)COc1cccc(-c2nc(Nc3ccc4[nH]ncc4c3)c3ccccc3n2)c1 [belumosudil]
(A) 209

----------
Assay overview: Toxicokinetics in pregnant Sprague-Dawley rats (Example 1)
Assay type: in vivo, rat
Test parameters: female, Sprague-Dawley, rat, in vivo, po, 25 mg base/kg/day; read-out: maternal AUC0-24
Property label: AUC(0-t) (ng·h/mL)
Answers are plain numbers, in ng·h/mL.

(Q) Recorded AUC(0-t) for "CC(C)NC(=O)COc1cccc(-c2nc(Nc3ccc4[nH]ncc4c3)c3ccccc3n2)c1" , please?
(A) 20400

----------
For each entry below, report its AUC0-24 in rat plasma value.
Assay overview: Toxicokinetic analysis in rat plasma (Example 5)
Format: in vivo
Test parameters: Day 70, belumosudil 50 mg base/kg, M
Numbers only, in ng·h/mL.

O=C(O)COc1cccc(-c2nc(Nc3ccc4[nH]ncc4c3)c3ccccc3n2)c1 [KD025m2]    4080

Now take the following compound into account.
(Q) Return reported AUC0-24 in rat plasma; argument: CC(C)NC(=O)COc1cccc(-c2nc(Nc3ccc4[nH]ncc4c3)c3ccccc3n2)c1 [belumosudil]
(A) 21600

----------
Assay overview: Toxicokinetic evaluation in pregnant rats (Example 3)
Assay type: in vivo, rat
Test parameters: female, Sprague-Dawley, rat, plasma, po, 15 mg/kg/day, GD 6, belumosudil 15 mg base/kg oral; read-out: Mean AUC0-24 in plasma of pregnant rats
Property label: AUC(0-t) (ng·h/mL)
Give bare numbers, in ng·h/mL.

(Q) Recorded AUC(0-t) of "CC(C)NC(=O)COc1cccc(-c2nc(Nc3ccc4[nH]ncc4c3)c3ccccc3n2)c1" , please.
(A) 9750

----------
Assay overview: Toxicokinetic analysis in rat plasma (Example 5)
Format: in vivo
Test parameters: male, rat, plasma, po, 275 mg/kg/day, Day 70, belumosudil 275 mg base/kg, M
Property label: Cmax
Write the numeric value and follow it with the unit.

(Q) Field request: Cmax | item: CC(C)NC(=O)COc1cccc(-c2nc(Nc3ccc4[nH]ncc4c3)c3ccccc3n2)c1 [belumosudil]
(A) 20400 ng/mL

----------
Assay overview: Toxicokinetic evaluation in pregnant rabbits (Example 4)
Assay type: in vivo, rabbit
Test parameters: female, New Zealand White, rabbit, plasma, po, 225 mg/kg/day, GD 6, belumosudil 225 mg base/kg oral
Property label: Cmax

(Q) So what does the record say about Cmax for "CC(C)NC(=O)COc1cccc(-c2nc(Nc3ccc4[nH]ncc4c3)c3ccccc3n2)c1" ?
(A) 4140 ng/mL

----------
Assay overview: Toxicokinetic analysis in rat plasma (Example 5)
Format: in vivo
Test parameters: Day 1, belumosudil 275 mg base/kg, M
I'd appreciate it if you could supply AUC0-24 in rat plasma values for the items below.
One number for each entry, in ng·h/mL.

O=C(O)COc1cccc(-c2nc(Nc3ccc4[nH]ncc4c3)c3ccccc3n2)c1    21500

(Q) Data request, read-out AUC0-24 in rat plasma, for "CC(C)NC(=O)COc1cccc(-c2nc(Nc3ccc4[nH]ncc4c3)c3ccccc3n2)c1"
(A) 96400

----------
Assay overview: Toxicokinetic evaluation in pregnant rabbits (Example 4)
Format: in vivo, rabbit
Test parameters: female, New Zealand White, rabbit, plasma, po, 225 mg/kg/day, GD 18, belumosudil 225 mg base/kg oral; read-out: Mean AUC0-24 in plasma of pregnant rabbits
Property label: AUC(0-t) (ng·h/mL)
Answers are plain numbers, in ng·h/mL.

(Q) Field request: AUC(0-t) | item: "CC(C)NC(=O)COc1cccc(-c2nc(Nc3ccc4[nH]ncc4c3)c3ccccc3n2)c1"
(A) 23500
